System: K-562 leukemia
Experiment: NCI tumour cell line growth inhibition, 48 h
Readout: GI50

>>> observed_measurement("Nc1c(C(=O)Nc2ccccc2)sc2nc3c(cc12)C(=O)CCC3")
"287 nM"

Q. Which GI50 is listed for CN(C)CCNC(=O)Nc1ccc(N(C)c2ccnc(Nc3ccc(CS(C)(=O)=O)cc3)n2)cc1 ?
A. > 25000 nM

Q. Now give it for N#CN1CC[C@H](C(=O)Nc2ncc(-c3ccccc3)s2)C1 too.
A. 455 nM

###

Tested on: HCT-116 colon
Experiment: NCI tumour cell line growth inhibition, 48 h
Readout: GI50

Worked cases, answers included:
>>> observed_measurement("OCC1OC(OC2(CO)OC(CO)C(O)C2O)C(O)C(O)C1O (stereo not given)")
"> 100 µM"
>>> observed_measurement("OCc1ccc(-c2ccc(-c3ccc(CO)o3)o2)o1")
"> 88.9 µM"
>>> observed_measurement("CO[C@H]1C(=O)[C@]2(C)[C@@H](OC)C[C@H]3OC[C@@]3(OC(C)=O)[C@H]2[C@H](OC(=O)c2ccccc2)[C@]2(O)C[C@H](OC(=O)[C@H](O)[C@@H](NC(=O)OC(C)(C)C)c3ccccc3)C(C)=C1C2(C)C")
"< 0.01 µM"
>>> observed_measurement("CCOC(=O)[C@@H](C)C[C@H](Cc1ccccc1)NC(=O)c1csc([C@@H](C[C@H](C(C)C)N(C)C(=O)CNC(=O)[C@H]2CCCCN2C)OC(C)=O)n1")
"0.529 µM"
>>> observed_measurement("CN(C)CCNC(=O)Nc1ccc(N(C)c2ccnc(Nc3ccc(CS(C)(=O)=O)cc3)n2)cc1")
"> 25 µM"
>>> observed_measurement("COc1cccc(/C=N/[N-]C(N)=O)c1[O-].[Cu+2].[OH3+]")
"4.09 µM"

Q. Can you look up the measured GI50 of CCOC(=O)c1cn(C)c2c(OC)c3ccccc3c(OC)c2c1=O for me?
A. 19.6 µM

Q. Same question for Nc1c(C(=O)Nc2ccccc2)sc2nc3c(cc12)C(=O)CCC3 please.
A. 0.512 µM

Q. Moving on to Oc1cn(-c2ccc(Cl)cc2)nc1-c1n[nH]c(=S)n1-c1ccc(F)cc1
A. 11.6 µM

Q. And Nc1ncnc2c1c(-c1ccc(Oc3ccccc3)cc1)nn2CC1SSCC1O (stereo not given) ?
A. 0.59 µM

###

Test system: M14 melanoma
Assay: NCI tumour cell line growth inhibition, 48 h; in the data active = GI50 below about 0.43 µM; inactive = the rest
Your response should consist of one outcome taken from true for active, false for inactive

Solved entries (count: 2):
>>> assigned_label("OCC1OC(OC2(CO)OC(CO)C(O)C2O)C(O)C(O)C1O (centres undefined)")
"false"
>>> assigned_label("COc1ccc(-c2cnc(-c3ccncc3-c3cccc(OC)c3)o2)cc1")
"true"

Q. Assay result, entry CC[n+]1c(-c2ccccc2)c2cc(N)ccc2c2ccc(N)cc21 — outcome?
A. false

Q. Subsequent entry: COC(=O)[C@]12CC[C@@H](C)[C@H](C)[C@@H]1C1=CC[C@@H]3[C@@]4(C)C(C=O)=C[C@@](C)(COS(C)(=O)=O)C4=CC[C@@]3(C)[C@]1(C)CC2
A. true

Q. Also check O=C1c2ccccc2-c2c1c1ccccc1c(=O)n2CCCNCCNCCCn1c2c(c3ccccc3c1=O)C(=O)c1ccccc1-2
A. true

Q. Similarly, N#Cc1cc(F)cc(Oc2ccc(S(=O)(=O)C(F)F)c3c2CC(F)(F)[C@H]3O)c1 ?
A. false

Q. Another: NC(=O)c1nc(-c2c(F)cccc2Cl)oc1Nc1ccc(C(=O)N2CCOCC2)cc1
A. false

Q. Another compound to look at: N#CN1CC[C@H](C(=O)Nc2ncc(-c3ccccc3)s2)C1
A. false

Q. Check O=C(O)c1ccccc1NCn1nc(-c2ccccc2O)oc1=S too.
A. false

Data origin, for the record: PubChem BioAssay (NCI)
